This listing pairs compounds with measured mass density.
# condition notes: 308.15 K; 101 kPa; Liquid; Vibrating tube method
reported endpoint: mass density (kg/m3)

1) CCCCCCC :: 671.3
2) c1ccccc1 :: 862.9
3) Cc1ccccc1 :: 852.8
4) C1CCCCCCC1 :: 823.6
5) CCc1ccccc1 :: 853.7

---

# condition notes: 313.15 K; 101 kPa; Liquid
reported endpoint: viscosity (mPa·s)

1. CCc1ccccc1 [ethylbenzene] :: 0.5294
2. CCCCCCC [heptane] :: 0.3329
3. C1CCCCCCC1 [cyclooctane] :: 1.636
4. c1ccccc1 [benzene] :: 0.4942

Each recorded value in this set is attributed to the NIST ThermoML archive (doi:10.1007/s10765-009-0667-2).
